- Tested on: BT-474
- Method Description: Antiproliferative activity against human BT-474 cells overexpressing HER2 assessed as cell growth inhibition incubated for 72 hrs by cell titer glo assay
- Type: functional, cell-based
- Condition: BT-474, 72 h
Measurement Type: IC50 (µM)
One number for each entry, in µM.

Tell us which IC50 value is on record for `CC[C@H](C)[C@@H]1NC(=O)[C@@H]2CCCN2C(=O)[C@@H]2CCCN2C(=O)NC(=O)[C@H](CC(=O)O)NC(=O)[C@H](Cc2ccccc2)NC(=O)[C@@H]2CSSC[C@H](NC(=O)N[C@H](c3cccc4ccccc34)CC(=O)N[C@@H](CCCNC(=N)N)C(=O)N3CCC[C@H]3C(=O)NCC(=O)N[C@@H](CCCNC(=N)N)C(=O)N[C@H](c3cccc4ccccc34)CC(=O)N2)C(=O)N[C@@H](Cc2ccccc2)C(=O)NC(=O)[C@H](CC(=O)O)NC(=O)[C@H](CO)NC1=O`
7.22

====

- Test system: MCF7
- Method Description: Antiproliferative activity against human MCF7 cells with silenced HER2 assessed as cell growth inhibition incubated for 72 hrs by cell titer glo assay
- Assay type: functional, cell-based
- Condition: MCF7, 72 h
Measurement Type: IC50

Tell us which IC50 value is on record for `CC[C@H](C)[C@@H]1NC(=O)[C@@H]2CCCN2C(=O)[C@@H]2CCCN2C(=O)NC(=O)[C@H](CC(=O)O)NC(=O)[C@H](Cc2ccccc2)NC(=O)[C@@H]2CSSC[C@H](NC(=O)N[C@H](c3cccc4ccccc34)CC(=O)N[C@@H](CCCNC(=N)N)C(=O)N3CCC[C@H]3C(=O)NCC(=O)N[C@@H](CCCNC(=N)N)C(=O)N[C@H](c3cccc4ccccc34)CC(=O)N2)C(=O)N[C@@H](Cc2ccccc2)C(=O)NC(=O)[C@H](CC(=O)O)NC(=O)[C@H](CO)NC1=O`
> 30 µM
